settings: 353.15 K; 101 kPa; Liquid
ATTRIBUTE MEASURED: mass density (kg/m3)
Field format: number, assumed kg/m3, no unit text.

chemical_string=Cc1ccccc1C attribute_measured="mass density" obs_value=828.47
chemical_string=Cc1cccc(C)c1 attribute_measured="mass density" obs_value=811.29
chemical_string=Cc1ccc(C)cc1 attribute_measured="mass density" obs_value=807.81

Consider the additional compound presented here.
Requested read-out: mass density. Entry: "CN1CCCC1=O"
978.62

----------
assay: refractive index (Na D-line) (dimensionless); settings: 298.15 K; 101.33 kPa; Liquid; Standard Abbe refractometry
ATTRIBUTE MEASURED: refractive index
Give only the figure.

chemical_string=Cc1ccccc1C attribute_measured="refractive index" obs_value=1.5057
chemical_string=CN1CCCC1=O attribute_measured="refractive index" obs_value=1.4677
chemical_string=Cc1cccc(C)c1 attribute_measured="refractive index" obs_value=1.4973

Attention now shifts to the item below.
Please give the measured refractive index for this molecule: "Cc1ccc(C)cc1"
1.4958

----------
settings: 298.15 K; 101 kPa; Liquid
ATTRIBUTE MEASURED: mass density (kg/m3)
# value in kg/m3; strip the unit string

Reference set, count: 3
chemical_string=Cc1ccccc1C measure_unit=kg/m3 obs_value=875.73
chemical_string=Cc1cccc(C)c1 measure_unit=kg/m3 obs_value=859.83
chemical_string=CN1CCCC1=O measure_unit=kg/m3 obs_value=1028.25

Field: next compound
# mass density lookup, item "Cc1ccc(C)cc1"
856.58

----------
settings: 303.15 K; 101 kPa; Liquid
ATTRIBUTE MEASURED: mass density (kg/m3)
State just the number; it will be interpreted in kg/m3.

Known results for compounds:
chemical_string=Cc1ccccc1C attribute_measured="mass density" obs_value=871.48
chemical_string=Cc1ccc(C)cc1 attribute_measured="mass density" obs_value=852.3
chemical_string=CN1CCCC1=O attribute_measured="mass density" obs_value=1023.42

// next entry
# mass density lookup, item "Cc1cccc(C)c1"
855.64

----------
conditions: 333.15 K; 101 kPa; Liquid
ATTRIBUTE MEASURED: mass density (kg/m3)
Respond with the bare value in kg/m3.

chemical_string=Cc1ccccc1C obs_value=845.91

Please report the recorded mass density for "Cc1ccc(C)cc1" .
825.86

Consider the molecule shown here: "Cc1cccc(C)c1" What is its recorded mass density?
829.22

Look at this molecule and give its reported mass density. "CN1CCCC1=O"
996.28
